Sourced from ChEMBL document CHEMBL1961873

System: Proto-oncogene tyrosine-protein kinase receptor Ret (Homo sapiens), P07949 [V804L]
Sequence (P07949 whole entry V804L): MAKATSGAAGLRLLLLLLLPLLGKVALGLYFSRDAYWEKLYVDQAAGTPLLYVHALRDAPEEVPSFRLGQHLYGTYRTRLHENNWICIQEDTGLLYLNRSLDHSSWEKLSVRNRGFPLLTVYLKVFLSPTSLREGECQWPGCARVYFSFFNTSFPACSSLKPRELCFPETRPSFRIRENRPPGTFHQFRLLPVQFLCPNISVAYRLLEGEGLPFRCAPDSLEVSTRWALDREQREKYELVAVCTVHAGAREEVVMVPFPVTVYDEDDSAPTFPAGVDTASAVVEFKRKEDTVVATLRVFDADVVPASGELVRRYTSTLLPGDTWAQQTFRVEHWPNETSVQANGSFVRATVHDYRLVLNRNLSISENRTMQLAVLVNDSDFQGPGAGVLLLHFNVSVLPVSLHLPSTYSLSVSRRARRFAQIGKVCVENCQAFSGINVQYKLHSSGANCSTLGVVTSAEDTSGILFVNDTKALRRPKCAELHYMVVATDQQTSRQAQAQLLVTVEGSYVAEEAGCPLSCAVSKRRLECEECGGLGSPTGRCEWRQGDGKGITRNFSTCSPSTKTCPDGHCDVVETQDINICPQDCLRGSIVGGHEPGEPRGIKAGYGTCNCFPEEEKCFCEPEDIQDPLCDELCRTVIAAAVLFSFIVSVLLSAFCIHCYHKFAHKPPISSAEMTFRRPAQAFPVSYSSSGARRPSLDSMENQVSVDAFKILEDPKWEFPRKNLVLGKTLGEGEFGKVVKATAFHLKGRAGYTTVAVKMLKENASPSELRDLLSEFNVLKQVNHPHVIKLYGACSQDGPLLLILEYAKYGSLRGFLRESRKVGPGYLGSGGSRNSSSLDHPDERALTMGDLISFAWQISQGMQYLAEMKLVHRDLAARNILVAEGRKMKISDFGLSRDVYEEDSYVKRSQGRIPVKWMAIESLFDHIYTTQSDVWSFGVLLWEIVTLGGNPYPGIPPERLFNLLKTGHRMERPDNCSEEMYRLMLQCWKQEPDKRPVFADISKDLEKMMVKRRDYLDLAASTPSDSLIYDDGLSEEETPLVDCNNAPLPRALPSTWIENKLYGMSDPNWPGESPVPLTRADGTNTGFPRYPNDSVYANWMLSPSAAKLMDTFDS
Details: at 1 µM
Label T for high-side inhibition (at or above 8%) and F for low-side inhibition (below it).

Answered cases to consult:
FC(F)(F)c1cccc(Nc2nccc(-c3cnn4nc(-c5ccccc5)ccc34)n2)c1 : F
Fc1ccc(-c2ncn(C3CCNCC3)c2-c2ccnc(Oc3ccc(F)c(F)c3)n2)cc1 : T
CCS(=O)(=O)c1ccc(OC)c(Nc2ncc(-c3cccc(-c4ccccc4F)c3)o2)c1 : T
C/C(Nc1ccc(S(N)(=O)=O)cc1)=C1/C(=O)Nc2ccccc21 : T
NS(=O)(=O)c1ccc(N/N=C2\C(=O)Nc3ccc(-c4cnco4)cc32)cc1 : T
COc1ccc(C2=C(N3CCc4ccccc43)C(=O)NC2=O)cc1 : F
Fc1ccc(-c2ncn(C3CCNCC3)c2-c2ccnc(Oc3ccc(Oc4ccccc4)cc3)n2)cc1 : F
CCN(CC)Cc1ccc(Nc2nccc(-c3cnn4ncccc34)n2)cc1 : T
NS(=O)(=O)c1ccc(Nc2cc(-c3ccc(O)c(F)c3)n[nH]2)cc1 : T
COc1ccc2cc(-c3c(-c4ccncc4)nc(-c4ccc([S+](C)[O-])cc4C)n3C)ccc2c1 (stereo not given) : F

Could you tell me if the measured inhibition of COc1cc(Nc2ncc3c(C)nc(-c4cccc(Oc5ccccc5)c4)n3n2)cc(OC)c1OC reaches 8% or more?
T

Could you tell me if the measured inhibition of COc1cc(N2CCN(C(C)C)CC2)ccc1Nc1nc(Nc2ccc(F)cc2C(=O)NC[C@@H](O)CO)c2cc[nH]c2n1 reaches 8% or more?
T

Could you tell me if the measured inhibition of COc1ccc(-c2ccc3c(NC(=O)C4CC4)n[nH]c3n2)cc1 reaches 8% or more?
T

Could you tell me if the measured inhibition of Clc1ccc(CNc2nccc(-c3cnn4ncccc34)n2)cc1 reaches 8% or more?
F

Could you tell me if the measured inhibition of COc1ccc2ncn(-c3cc(O[C@H](C)c4ccccc4Cl)c(C(N)=O)s3)c2c1 reaches 8% or more?
F
